assayed_system: Mariprofundus ferrooxydans EPSP synthase DGT-14 variant DGT-14 v6 (G101A), SEQ ID NO:1 (Mariprofundus ferrooxydans, UniProt Q0EYT4, G101A)
measurement_protocol: In vitro kinetic assay (inorganic phosphate production, malachite green)
Format: biochemical
condition_info: IC50 (glyphosate), at 1 mM PEP; values greater than 50 are estimates
pIC50: −log10 of the molar value.
measurement_kind: pIC50

- O=C(O)CNCP(=O)(O)O [glyphosate, N-(phosphonomethyl)glycine]: < 1.10

* * *

assayed_system: Glycine max (soybean) EPSP synthase DGT-1 variant DGT-1 v8 (T→I, P→S; TIPS) (Glycine max, UniProt I1J7U9, P187S/T183I)
measurement_protocol: In vitro kinetic assay (inorganic phosphate production, malachite green)
Type: biochemical
condition_info: IC50 (glyphosate), at 60 μM PEP
measurement_kind: IC50 (mM)

- O=C(O)CNCP(=O)(O)O [glyphosate, N-(phosphonomethyl)glycine]: 5.9

* * *

assayed_system: Glycine max (soybean) EPSP synthase DGT-1 variant DGT-1 v7 (G→A, P→S; GAPS) (Glycine max, UniProt I1J7U9, G182A/P187S)
measurement_protocol: In vitro kinetic assay (inorganic phosphate production, malachite green)
Format: biochemical
measurement_kind: IC50

- O=C(O)CNCP(=O)(O)O [glyphosate, N-(phosphonomethyl)glycine]: > 80 mM

* * *

assayed_system: Mariprofundus ferrooxydans EPSP synthase DGT-14 variant DGT-14 v6 (G101A), SEQ ID NO:1 (Mariprofundus ferrooxydans, UniProt Q0EYT4, G101A)
measurement_protocol: In vitro kinetic assay (inorganic phosphate production, malachite green)
Type: biochemical
condition_info: IC50 (glyphosate), at 60 μM PEP; values greater than 50 are estimates
measurement_kind: IC50

* O=C(O)CNCP(=O)(O)O [glyphosate, N-(phosphonomethyl)glycine] | > 80 mM

* * *

assayed_system: Glycine max (soybean) EPSP synthase DGT-1 variant DGT-1 v8 (T→I, P→S; TIPS) (Glycine max, UniProt I1J7U9, P187S/T183I)
Sequence (I1J7U9 with tags, fused parts or gaps T183I/P187S): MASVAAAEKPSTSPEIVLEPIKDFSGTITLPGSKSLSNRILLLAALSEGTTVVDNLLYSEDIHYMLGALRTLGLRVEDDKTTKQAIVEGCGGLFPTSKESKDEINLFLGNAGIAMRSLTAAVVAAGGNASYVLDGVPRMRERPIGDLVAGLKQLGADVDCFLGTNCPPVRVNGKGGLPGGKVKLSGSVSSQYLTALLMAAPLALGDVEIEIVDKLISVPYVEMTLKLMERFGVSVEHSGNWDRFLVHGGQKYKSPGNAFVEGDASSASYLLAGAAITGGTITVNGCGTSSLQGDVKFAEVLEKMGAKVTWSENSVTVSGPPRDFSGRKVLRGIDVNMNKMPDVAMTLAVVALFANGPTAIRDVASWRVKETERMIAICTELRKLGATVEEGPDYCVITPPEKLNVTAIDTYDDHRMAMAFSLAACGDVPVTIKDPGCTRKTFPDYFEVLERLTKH
measurement_protocol: In vitro kinetic assay (inorganic phosphate production, malachite green)
Type: biochemical
condition_info: tolerance to glyphosate, PEP concentration not given
measurement_kind: IC50

* O=C(O)CNCP(=O)(O)O [glyphosate, N-(phosphonomethyl)glycine] | 3 to 6 mM

* * *

assayed_system: Brassica napus (canola) EPSP synthase DGT-3 (GENBANK P17688) variant DGT-3 v8 (T→I, P→S; TIPS) (Brassica napus, UniProt P17688, P178S/T174I)
Construct: made in house; host or cells: E. coli Rosetta2 (DE3)
Sequence (P17688 73-516 T174I/P178S): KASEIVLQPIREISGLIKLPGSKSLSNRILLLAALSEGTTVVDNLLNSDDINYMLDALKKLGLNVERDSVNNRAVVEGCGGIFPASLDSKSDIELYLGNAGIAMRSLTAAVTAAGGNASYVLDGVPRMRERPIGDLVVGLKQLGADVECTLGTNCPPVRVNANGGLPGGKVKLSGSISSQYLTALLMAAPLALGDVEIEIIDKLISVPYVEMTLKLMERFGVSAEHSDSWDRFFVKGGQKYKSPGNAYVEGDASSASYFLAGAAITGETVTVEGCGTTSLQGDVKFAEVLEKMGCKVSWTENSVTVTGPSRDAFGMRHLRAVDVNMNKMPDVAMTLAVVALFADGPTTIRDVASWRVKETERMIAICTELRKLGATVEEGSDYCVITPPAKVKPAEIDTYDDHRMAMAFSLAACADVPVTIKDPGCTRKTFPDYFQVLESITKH
measurement_protocol: In vitro kinetic assay (inorganic phosphate production, malachite green)
Format: biochemical
condition_info: IC50 (glyphosate), at 1 mM PEP
pIC50: −log10 of the molar value.
measurement_kind: pIC50

- O=C(O)CNCP(=O)(O)O [glyphosate, N-(phosphonomethyl)glycine]: 1.88

* * *

assayed_system: Triticum aestivum (wheat) EPSP synthase DGT-7 variant DGT-7 v7 (G→A, P→S; GAPS) (Triticum aestivum, UniProt B5M6A1, G167A/P172S)
Construct: GAPS double mutant
Sequence (B5M6A1 with tags, fused parts or gaps G167A/P172S): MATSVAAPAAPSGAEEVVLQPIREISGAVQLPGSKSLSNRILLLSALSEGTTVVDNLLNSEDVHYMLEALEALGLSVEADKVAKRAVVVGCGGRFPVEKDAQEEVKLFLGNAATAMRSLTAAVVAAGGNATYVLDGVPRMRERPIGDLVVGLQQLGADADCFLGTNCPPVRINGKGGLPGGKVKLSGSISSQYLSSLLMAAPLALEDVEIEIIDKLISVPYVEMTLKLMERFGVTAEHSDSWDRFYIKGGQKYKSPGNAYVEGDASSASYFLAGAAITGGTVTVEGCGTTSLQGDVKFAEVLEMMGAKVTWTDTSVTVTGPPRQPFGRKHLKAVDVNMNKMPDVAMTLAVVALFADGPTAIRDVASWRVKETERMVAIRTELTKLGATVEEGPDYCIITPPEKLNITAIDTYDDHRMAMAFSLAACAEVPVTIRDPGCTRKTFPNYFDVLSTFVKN
measurement_protocol: In vitro kinetic assay (inorganic phosphate production, malachite green)
Type: biochemical
condition_info: IC50 (glyphosate), at 60 μM PEP
measurement_kind: IC50 (mM)

- O=C(O)CNCP(=O)(O)O [glyphosate, N-(phosphonomethyl)glycine]: 15.4

* * *

assayed_system: Mariprofundus ferrooxydans EPSP synthase DGT-14 v1, native wild type (GENBANK ZP_01452683; SEQ ID NO:17) (Mariprofundus ferrooxydans, UniProt Q0EYT4)
Construct: pET28, N-terminal 6xHis and thrombin site, E. coli, IMAC purified
measurement_protocol: In vitro kinetic assay (inorganic phosphate production, malachite green)
Assay type: biochemical
condition_info: IC50 (glyphosate), at 1 mM PEP
pIC50: −log10 of the molar value.
measurement_kind: pIC50

* O=C(O)CNCP(=O)(O)O [glyphosate, N-(phosphonomethyl)glycine] | < 1.70

* * *

assayed_system: Triticum aestivum (wheat) EPSP synthase DGT-7 variant DGT-7 v8 (T→I, P→S; TIPS) (Triticum aestivum, UniProt B5M6A1, P172S/T168I)
Construct: TIPS double mutant
Sequence (B5M6A1 with tags, fused parts or gaps T168I/P172S): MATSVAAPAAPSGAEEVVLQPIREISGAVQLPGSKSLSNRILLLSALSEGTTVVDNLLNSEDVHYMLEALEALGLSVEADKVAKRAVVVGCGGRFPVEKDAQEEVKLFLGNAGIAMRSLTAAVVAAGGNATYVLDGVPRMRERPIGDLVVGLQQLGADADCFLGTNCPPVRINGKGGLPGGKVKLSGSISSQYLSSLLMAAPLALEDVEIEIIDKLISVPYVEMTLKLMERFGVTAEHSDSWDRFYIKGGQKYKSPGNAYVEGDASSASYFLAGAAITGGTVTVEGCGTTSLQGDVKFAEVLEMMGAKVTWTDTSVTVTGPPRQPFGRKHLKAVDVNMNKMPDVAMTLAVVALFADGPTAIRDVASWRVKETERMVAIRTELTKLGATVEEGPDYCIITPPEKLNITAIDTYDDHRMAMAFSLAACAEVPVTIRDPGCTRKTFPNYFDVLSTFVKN
measurement_protocol: In vitro kinetic assay (inorganic phosphate production, malachite green)
Format: biochemical
condition_info: tolerance to glyphosate, PEP concentration not given
pIC50: −log10 of the molar value.
measurement_kind: pIC50

- O=C(O)CNCP(=O)(O)O [glyphosate, N-(phosphonomethyl)glycine]: 2.22 to 2.52
